# Test: Primary qHTS for inhibitors of nuclear receptor binding SET domain protein 2 (NSD2) in an RCH-ACV wild type WT cells (2C) (AID 1645877); also: nearly all actives have a fitted effect of over 70% in size
# Recorded conditions: RCH-ACV (leukaemia line) NSD2 WT (2C) viability, CellTiter-Glo, 72 h; series mostly up to 44.9 µM
Inconclusive results are not listed. Calls of active or inactive are those of the source. Calls follow the shape of the dose curve; as a rule, active = well fitted inhibition curve with a large enough effect; inconclusive = small, poorly fitted or top-dose-only effect; inactive = no such curve, though single readings can be large or run the other way.
// classify into active, inactive

Task item: Identify the outcome logged in this assay for the compound shown: `CC[C@H]1OC(=O)[C@H](C)[C@@H](O[C@H]2C[C@@](C)(OC)[C@@H](O)[C@H](C)O2)[C@H](C)[C@@H](O[C@H]2O[C@H](C)C[C@H](N(C)C)[C@H]2O)[C@](C)(O)C[C@@H](C)C(=O)[C@H](C)[C@@H](O)[C@]1(C)O`
Reply: inactive

Task item: Same for `COc1ccc(NC(=O)c2ccc(C(=N)N(C)C)cc2)c(C(=O)Nc2ccc(Cl)cn2)c1`
Reply: inactive

Task item: Same for COC1CC(O[C@H]2CC[C@]3(C)C4CC[C@@]5(C)C(=O)[C@]4(CC[C@@H]3C2)CC[C@@H]5C2=CC(=O)OC2)OC(C)C1OC1OC(COC2OC(CO)C(O)C(O)C2O)C(O)C(O)C1O (some centres not stated)
Reply: active

Task item: Same for COC1CC/C=C(\C)C(=O)Nc2cc(O)cc(c2)CC(C)CC(OC)C(O)C(C)/C=C(\C)C1OC(N)=O (configuration not stated)
Reply: active

Task item: Same for COc1cccc(-c2cc(F)ccc2C2Cc3nc(N)nc(C)c3C(=O)N2)n1 (configuration not stated)
Reply: active

----------
# System: C33A
# Test: Primary qHTS to identify gynecologic anti-cancer compounds using libraries of approved drugs and bioactive compounds (AID 1345084); also: nearly all actives have a fitted effect of over 55% in size
# Recorded conditions: Gynecologic cancer cell panel viability, ATPlite luminescence, 48 h; series mostly up to 57.5 µM
# Text: National Center for Advancing Translational Sciences [NCATS] Assay Overview: Chemotherapeutic drug responses vary from cancer to cancer and from patient to patient. […] ATPlite is a luminescence based assay reliant on the conversion of a luciferase substrate to light in the presence of ATP. As a cytotoxic compound will suppress growth and decrease the number of cells, the concentration of ATP will decrease, and less light signal will be detected in the well. […]
Records with an inconclusive call do not appear. Activity calls are given as the source filed them. The call rests on the fitted dose curve; in most records, active means well fitted cell-killing curve with a large enough effect; inconclusive means small, poorly fitted or top-dose-only effect, or effect the other way; inactive means flat fitted curve, though single readings scatter.
// classify into active, inactive

Please review the following examples before continuing.
COCC(=O)NC/C=C/c1ccc2ncnc(Nc3ccc(Oc4ccc(C)nc4)c(C)c3)c2c1; inactive
Cc1csc(N(C(=O)CSc2ccc(-c3ccccc3)nn2)C2CC2)n1; inactive
C=C1/C(=C/C=C2\CCC[C@@]3(C)C2CCC3[C@H](C)/C=C/[C@@H](O)C2CC2)C[C@@H](O)C[C@@H]1O (stereo not given in full); inactive
Cc1nc(Nc2ccc(F)cc2)nc(N2CCc3ccccc3C2C)c1C (stereo not given); inactive
CCOc1ccc(S(=O)(=O)N2CCCCCC2)c2ccccc12; inactive
C=C1C(=O)O[C@@H]2/C=C(\C)CC/C=C(\C)CC[C@@H]12; inactive
O=C(CNC(=O)c1cccc(C(F)(F)F)c1)N[C@@H]1CCN(Cc2ccc(Cl)cc2)C1; inactive
O=c1cc(NCCCN[C@@H]2CCOc3c(Br)cc(Br)cc32)[nH]c2ccsc12; inactive
CC1=CC2/C=C(\C)CCC(O)C/C=C/C(=O)OC23C(=O)NC(CC(C)C)C3C1C (stereo not given); inactive
O=C(c1ccc(F)cc1)N1CCCC(c2nc(-c3ccc(F)cc3)no2)C1 (stereo not given); inactive

Task item: Identify the outcome logged in this assay for the compound shown: `CC#C[C@@H](CC(=O)O)c1ccc(OCc2cccc(-c3ccc(C(F)(F)F)cc3)c2)cc1`
Reply: inactive

Task item: Same for `Cn1c(CO)c(-c2ccccc2)c2cc([N+](=O)[O-])ccc21`
Reply: inactive

Task item: Same for `O=C(Nc1ccc(CN2CCOCC2)cc1)c1ccc(-c2cccc(Cl)c2)o1`
Reply: inactive

Task item: Same for `COc1ccc2[nH]c(=O)c3c(c2c1)OC(C)(C)C=C3`
Reply: inactive

Task item: Same for `Cc1cc(C(=O)Nc2cc(Oc3ccc4nc(NC(=O)C5CC5)cn4n3)ccc2C)n(C)n1`
Reply: inactive

Task item: Same for COc1ccnc(CS(=O)c2nc3cc(OC(F)F)ccc3[nH]2)c1OC (stereo not given)
Reply: inactive

Task item: Same for `CCOC(=O)c1cnn(-c2ccccc2)c1NC(=O)c1cc2nc(-c3ccco3)cc(C(F)(F)Cl)n2n1`
Reply: inactive

Task item: Same for `CCNC(=O)c1noc(-c2cc(Cl)c(O)cc2O)c1-c1ccc(OC)cc1`
Reply: active

Task item: Same for C=C(CCC1C(C)(O)CCC2C(C)(C)C(O)CCC12C)C(O)CO (stereo not given)
Reply: inactive

Task item: Same for `O=C(Nc1ccc2[nH]c(=O)oc2c1)C(=O)N1CCC(Cc2ccc(F)cc2)CC1`
Reply: inactive

Value source: PubChem BioAssay (NCATS)
